Provenance of the data: IntAct's records for PubMed 25910212

B1: EF-hand domain-containing protein 1 (Homo sapiens), Q5JVL4 (parent)
chain: MVSNPVHGLPFLPGTSFKDSTKTAFHRSQTLSYRNGYAIVRRPTVGIGGDRLQFNQLSQAELDELASKAPVLTYGQPKQAPPADFIPAHVAFDKKVLKFDAYFQEDVPMSTEEQYRIRQVNIYYYLEDDSMSVIEPVVENSGILQGKLIKRQRLAKNDRGDHYHWKDLNRGINITIYGKTFRVVDCDQFTQVFLESQGIELNPPEKMALDPYTELRKQPLRKYVTPSDFDQLKQFLTFDKQVLRFYAIWDDTDSMYGECRTYIIHYYLMDDTVEIREVHERNDGRDPFPLLMNRQRVPKVLVENAKNFPQCVLEISDQEVLEWYTAKDFIVGKSLTILGRTFFIYDCDPFTRRYYKEKFGITDLPRIDVSKREPPPVKQELPPYNGFGLVEDSAQNCFALIPKAPKKDVIKMLVNDNKVLRYLAVLESPIPEDKDRRFVFSYFLATDMISIFEPPVRNSGIIGGKYLGRTKVVKPYSTVDNPVYYGPSDFFIGAVIEVFGHRFIILDTDEYVLKYMESNAAQYSPEALASIQNHVRKREAPAPEAESKQTEKDPGVQELEALIDTIQKQLKDHSCKDNIREAFQIYDKEASGYVDRDMFFKICESLNVPVDDSLVKELIRMCSHGEGKINYYNFVRAFSN

Variants of: B1
Settings: with kctd4_human KCTD4, Q8WVF5
Sequence (Q8WVF5 whole entry): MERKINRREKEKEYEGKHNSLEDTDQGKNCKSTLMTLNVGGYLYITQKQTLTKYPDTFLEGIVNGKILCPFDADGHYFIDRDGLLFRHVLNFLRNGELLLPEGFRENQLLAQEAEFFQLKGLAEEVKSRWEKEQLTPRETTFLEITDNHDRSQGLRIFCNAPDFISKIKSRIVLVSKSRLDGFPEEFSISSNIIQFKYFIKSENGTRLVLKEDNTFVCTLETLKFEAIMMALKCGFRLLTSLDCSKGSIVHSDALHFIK

mutationString	effect of a mutation on the interaction
T508R	with no effect
R159W	with no effect
M448T	with no effect
